# experiment.summary: Antiproliferative activity against human A2780/TAX cells assessed as growth inhibition after 48 hrs by sulforhodamine B assay
# Assay type: functional, cell-based
Measured IC50 values are reported for all entries that follow.

structure.smiles	IC50
CC(=O)O[C@H]1C(=O)[C@]2(C)[C@@H](O[C@@H]3OC[C@@H](O)[C@H](O)[C@H]3O)C[C@H]3OC[C@@]3(OC(C)=O)[C@H]2[C@H](OC(=O)c2ccccc2)[C@]2(O)C[C@H](OC(=O)[C@H](O)[C@@H](NC(=O)c3ccccc3)c3ccccc3)C(C)=C1C2(C)C	> 25 µM
CC(=O)O[C@H]1C(=O)[C@@]2(C)[C@H]([C@H](OC(=O)c3ccccc3)[C@]3(O)C[C@H](O)C(C)=C1C3(C)C)[C@]1(OC(C)=O)CO[C@@H]1C[C@@H]2O	> 25 µM

---

# experiment.summary: Antiproliferative activity against human A2780/TAX cells assessed as growth inhibition after 48 hrs by sulforhodamine B assay
# Assay type: functional, cell-based

structure.smiles	IC50
CC(=O)O[C@H]1C(=O)[C@@]2(C)[C@H]([C@H](OC(=O)c3ccccc3)[C@]3(O)C[C@H](OC(=O)[C@H](O)[C@@H](NC(=O)OC(C)(C)C)c4ccccc4)C(C)=C1C3(C)C)[C@]1(OC(C)=O)CO[C@@H]1C[C@@H]2O	0.42 µM
C/C=C(\C)C(=O)N[C@@H](c1ccccc1)[C@@H](O)C(=O)O[C@H]1C[C@@]2(O)[C@@H](OC(=O)c3ccccc3)[C@@H]3[C@]4(OC(C)=O)CO[C@@H]4C[C@H](O[C@@H]4OC[C@@H](O)[C@H](O)[C@H]4O)[C@@]3(C)C(=O)[C@H](OC(C)=O)C(=C1C)C2(C)C	17 µM
CC(=O)O[C@@]12CO[C@@H]1C[C@@H](O)[C@@]1(C)C(=O)[C@H](O)C3=C(C)[C@@H](OC(=O)[C@H](O)[C@@H](NC(=O)c4ccccc4)c4ccccc4)C[C@@](O)([C@@H](OC(=O)c4ccccc4)[C@H]21)C3(C)C	7.2 µM
C/C=C(\C)C(=O)N[C@@H](c1ccccc1)[C@@H](O)C(=O)O[C@H]1C[C@@]2(O)[C@@H](OC(=O)c3ccccc3)[C@@H]3[C@]4(OC(C)=O)CO[C@@H]4C[C@H](O)[C@@]3(C)C(=O)[C@H](OC(C)=O)C(=C1C)C2(C)C	4.9 µM
CC(=O)O[C@H]1C(=O)[C@@]2(C)[C@H]([C@H](OC(=O)c3ccccc3)[C@]3(O)C[C@H](OC(=O)[C@H](O)[C@@H](NC(=O)c4ccccc4)c4ccccc4)C(C)=C1C3(C)C)[C@]1(OC(C)=O)CO[C@@H]1C[C@@H]2O	4.4 µM
CCCCCC(=O)N[C@@H](c1ccccc1)[C@@H](O)C(=O)O[C@H]1C[C@@]2(O)[C@@H](OC(=O)c3ccccc3)[C@@H]3[C@]4(OC(C)=O)CO[C@@H]4C[C@H](O[C@@H]4OC[C@@H](O)[C@H](O)[C@H]4O)[C@@]3(C)C(=O)[C@H](O)C(=C1C)C2(C)C	> 25 µM
CC(=O)O[C@@]12CO[C@@H]1C[C@H](O[C@@H]1OC[C@@H](O)[C@H](O)[C@H]1O)[C@@]1(C)C(=O)[C@H](O)C3=C(C)[C@@H](OC(=O)[C@H](O)[C@@H](NC(=O)c4ccccc4)c4ccccc4)C[C@@](O)([C@@H](OC(=O)c4ccccc4)[C@H]21)C3(C)C	> 25 µM
C/C=C(\C)C(=O)N[C@@H](c1ccccc1)[C@@H](O)C(=O)O[C@H]1C[C@@]2(O)[C@@H](OC(=O)c3ccccc3)[C@@H]3[C@]4(OC(C)=O)CO[C@@H]4C[C@H](O[C@@H]4OC[C@@H](O)[C@H](O)[C@H]4O)[C@@]3(C)C(=O)[C@H](O)C(=C1C)C2(C)C	> 25 µM

---

Measured IC50 values are reported for all entries that follow.
# experiment.summary: Antiproliferative activity against human HCT8 cells assessed as growth inhibition after 48 hrs by sulforhodamine B assay
# Assay type: functional, cell-based
# condition.set: HCT-8, 48 h

structure.smiles	IC50
C=C1[C@@H](OC(=O)C[C@H](c2ccccc2)N(C)C)C[C@H](OC(C)=O)[C@]2(C)[C@@H]1C[C@@H]1C[C@H](OC(C)=O)C(C)=C([C@@H](OC(C)=O)[C@@H]2OC(C)=O)C1(C)C	> 25 µM
C/C=C(\C)C(=O)N[C@@H](c1ccccc1)[C@@H](O)C(=O)O[C@H]1C[C@@]2(O)[C@@H](OC(=O)c3ccccc3)[C@@H]3[C@]4(OC(C)=O)CO[C@@H]4C[C@H](O[C@@H]4OC[C@@H](O)[C@H](O)[C@H]4O)[C@@]3(C)C(=O)[C@H](OC(C)=O)C(=C1C)C2(C)C	> 25 µM
CCCCCC(=O)N[C@@H](c1ccccc1)[C@@H](O)C(=O)O[C@H]1C[C@@]2(O)[C@@H](OC(=O)c3ccccc3)[C@@H]3[C@]4(OC(C)=O)CO[C@@H]4C[C@H](O[C@@H]4OC[C@@H](O)[C@H](O)[C@H]4O)[C@@]3(C)C(=O)[C@H](O)C(=C1C)C2(C)C	8.5 µM
C=C1[C@@H](O[C@@H]2O[C@H](CO)[C@@H](O)[C@H](O)[C@H]2O)C[C@H](OC(C)=O)[C@]2(C)[C@@H]1C[C@@H]1C[C@H](O)C(C)=C([C@@H](OC(C)=O)[C@@H]2OC(C)=O)C1(C)C	> 25 µM
CC(=O)O[C@H]1C(=O)[C@@]2(C)[C@H]([C@H](OC(=O)c3ccccc3)[C@]3(O)C[C@H](O)C(C)=C1C3(C)C)[C@]1(OC(C)=O)CO[C@@H]1C[C@@H]2O	12 µM
C=C1[C@@H](O)C[C@H](OC(C)=O)[C@@]2(COC(=O)c3ccccc3)[C@@H](OC(C)=O)[C@H](OC(C)=O)[C@@]3(O)[C@]4(C)OC[C@]3(C)C(CC4=O)[C@@H](OC(C)=O)[C@H]12	> 25 µM
C/C=C(\C)C(=O)N[C@@H](c1ccccc1)[C@@H](O)C(=O)O[C@H]1C[C@@]2(O)[C@@H](OC(=O)c3ccccc3)[C@@H]3[C@]4(OC(C)=O)CO[C@@H]4C[C@H](O[C@@H]4OC[C@@H](O)[C@H](O)[C@H]4O)[C@@]3(C)C(=O)[C@H](O)C(=C1C)C2(C)C	> 25 µM

---

Measured IC50 values are reported for all entries that follow.
# experiment.summary: Antiproliferative activity against human A2780/TAX cells assessed as growth inhibition after 48 hrs by sulforhodamine B assay
# Format: functional, cell-based

structure.smiles	IC50
C=C1[C@@H](OC(=O)/C=C/c2ccccc2)C[C@H](OC(C)=O)[C@]2(C)[C@@H]1C[C@@H]1C[C@H](OC(C)=O)C(C)=C([C@@H](OC(C)=O)[C@@H]2OC(C)=O)C1(C)C	> 25 µM
C=C1[C@@H](O)C[C@H](OC(C)=O)[C@@]2(COC(=O)c3ccccc3)[C@@H](OC(C)=O)[C@H](OC(C)=O)[C@@]3(O)[C@]4(C)OC[C@]3(C)C(CC4=O)[C@@H](OC(C)=O)[C@H]12	> 25 µM
C=C1[C@@H](OC(=O)C[C@H](c2ccccc2)N(C)C)C[C@H](OC(C)=O)[C@]2(C)[C@@H]1C[C@@H]1C[C@H](OC(C)=O)C(C)=C([C@@H](OC(C)=O)[C@@H]2OC(C)=O)C1(C)C	> 25 µM
CC(=O)O[C@@]12CO[C@@H]1C[C@H](O)[C@@]1(C)C(=O)[C@H](O)C3=C(C)[C@@H](O)C[C@@](O)([C@@H](OC(=O)c4ccccc4)[C@H]21)C3(C)C	16 µM
C=C1[C@@H](O[C@@H]2O[C@H](CO)[C@@H](O)[C@H](O)[C@H]2O)C[C@H](OC(C)=O)[C@]2(C)[C@@H]1C[C@@H]1C[C@H](O)C(C)=C([C@@H](OC(C)=O)[C@@H]2OC(C)=O)C1(C)C	> 25 µM

---

# experiment.summary: Antiproliferative activity against human HCT8 cells assessed as growth inhibition after 48 hrs by sulforhodamine B assay
# Assay type: functional, cell-based
# condition.set: HCT-8, 48 h

compound	IC50
CC(=O)O[C@H]1C(=O)[C@@]2(C)[C@H]([C@H](OC(=O)c3ccccc3)[C@]3(O)C[C@H](OC(=O)[C@H](O)[C@@H](NC(=O)OC(C)(C)C)c4ccccc4)C(C)=C1C3(C)C)[C@]1(OC(C)=O)CO[C@@H]1C[C@@H]2O	< 0.002 µM
C/C=C(\C)C(=O)N[C@@H](c1ccccc1)[C@@H](O)C(=O)O[C@H]1C[C@@]2(O)[C@@H](OC(=O)c3ccccc3)[C@@H]3[C@]4(OC(C)=O)CO[C@@H]4C[C@H](O)[C@@]3(C)C(=O)[C@H](OC(C)=O)C(=C1C)C2(C)C [CEPHALOMANNINE]	> 25 µM
CC(=O)O[C@@]12CO[C@@H]1C[C@H](O)[C@@]1(C)C(=O)[C@H](O)C3=C(C)[C@@H](O)C[C@@](O)([C@@H](OC(=O)c4ccccc4)[C@H]21)C3(C)C	> 25 µM
